Target: T1, human IL-2Rβ (human, UniProt P14784 27-240, limits assumed)
T1 construct: recombinant protein, coated or immobilised; also called hu IL-2R; IL-2R beta
T1 sequence: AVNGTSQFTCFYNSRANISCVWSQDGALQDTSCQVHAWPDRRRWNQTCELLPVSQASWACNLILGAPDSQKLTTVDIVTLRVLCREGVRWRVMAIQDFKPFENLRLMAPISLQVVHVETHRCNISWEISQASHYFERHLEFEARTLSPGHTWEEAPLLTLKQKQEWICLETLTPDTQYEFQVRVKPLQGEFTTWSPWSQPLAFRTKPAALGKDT
Test: SPR, P.E. off-rate
koff: recorded values

Solved cases (2 shown):
binder	reported result
FJ1427_P035MP02B08 (VHH, soluble VHH in periplasmic extract; also called 16-MP02B08; clone nr) VHH: EVQLVESGGGLVQAGGSLRLSCAASGRAIENYPVGWFRQAPGKEREFVAAITWISGSTLYADSVKGRFTISRDNAKNTVYLQMSSLKPEDTALYYCAAALKTITRGQNDYSYWGQGTQVTVSS	0.000141 s⁻¹
FJ1427 P035MP02A10 (VHH, soluble VHH in periplasmic extract; also called clone nr) VHH: QLQLVESGGGLVQTGTSLRLSCAASGHTSRINAMGWFRQFPGKEREFVAAISRNGGSTVYVDSVKGRFTISRDNAKSTVYLQMNSLKPEDTAVYYCTATDAVGWTTRWMTADFGFWGQGTQVTVSS	0.00226 s⁻¹

**Q:** Dear colleague, please send me the reported koff for FJ1427 P035MP02G05 (VHH, soluble VHH in periplasmic extract; also called clone nr) VHH: EVQLVESGGGLVQTGGSLRLSCAASGSQFINDVTGWYRQVPGKQRELVADMDDTGSTKYADSVKGRFTILRDSVKNTAYLQMSNLKPEDTGVYYCKAGLWIKGRHSDYWGQGTQVTVSS when you can.
**A:** 0.000432 s⁻¹

**Q:** Please give measured koff of the following entry: FJ1427_P035MP02E04 (VHH, soluble VHH in periplasmic extract; also called clone nr) VHH: EVQLVESGGGLVQAGGSLRLSCAASGGTFSSYAMGWFRQAPGKEREFVAATTRGGGRTMYAVSTEGRFTCSRDNAKNTVYLQMNSLKPKDTAIYYCAAMTSYYSGTYYPDSSDFDIWGQGTQVTVSS
**A:** 0.000716 s⁻¹
